Where do these numbers come from? They come from PubChem BioAssay (NCI).

Entries annotated with measured GI50
System: SNB-75 CNS
test: NCI tumour cell line growth inhibition, 48 h

{"molecule": "O=P(Oc1ccccc1)(Oc1ccccc1)C(O)c1ccccc1 (centres undefined)", "GI50": "34.4 µM"}
{"molecule": "CCN(Cc1ccc(F)cc1F)c1ccc(CO)c(Cl)c1", "GI50": "12.8 µM"}
{"molecule": "COc1cc(-c2cc(C(=O)Nc3nc4ccccc4s3)nc3cc(-c4ccccc4)nn23)cc(OC)c1OC", "GI50": "2.77 µM"}
{"molecule": "COc1cccc(-c2nc(-c3ccc(NS(=O)(=O)c4ccccc4)cc3)[nH]c2-c2ccnc(Br)c2)c1", "GI50": "1.92 µM"}

* * *

Test system: XF 498 CNS
test: NCI tumour cell line growth inhibition, 48 h
Entries annotated with measured TGI

{"compound": "O=C(c1ccccc1)c1ccc2cccc(O)c2n1", "censoring-operator": ">", "TGI [µM]": 100}
{"compound": "CC(C)(C)c1ccc(Oc2ccc(C#N)c(C#N)c2)c(C(C)(C)C)c1", "censoring-operator": "=", "TGI [µM]": 35.4}
{"compound": "COc1cccc2c1C(=O)c1c(O)c3c(c(O)c1C2=O)CC(O)(C(C)=O)CC3OC1CC([N+](C)(C)C)C(O)C(C)O1 (stereo not given)", "censoring-operator": "=", "TGI [µM]": 92.2}
{"compound": "COC1=C(OC)C(=O)c2cc(SC)c(=O)c(SC)cc2C1=O", "censoring-operator": "=", "TGI [µM]": 15.1}
{"compound": "COC(=O)C(=O)C(C(=O)C(=O)Nc1ccc([N+](=O)[O-])cc1[N+](=O)[O-])c1nc2ccc([N+](=O)[O-])cc2[nH]c1=O (stereo not given)", "censoring-operator": ">", "TGI [µM]": 100}
{"compound": "Brc1nc2c3ccccc3ncn2c1Br", "censoring-operator": "=", "TGI [µM]": 46.9}
{"compound": "N#CC12CCC(O)C(CC1)C2=O (stereo not given)", "censoring-operator": ">", "TGI [µM]": 100}
{"compound": "CC12CC(=O)OC(Cc3ccccc31)O2 (stereo not given)", "censoring-operator": ">", "TGI [µM]": 100}
{"compound": "Nc1ccc(CCN2CCN(c3cccc(C(F)(F)F)c3)CC2)cc1", "censoring-operator": ">", "TGI [µM]": 100}
{"compound": "CC(C)OP(=O)(OC(C)C)c1nn(-c2ccc([N+](=O)[O-])cc2)c(=N)s1", "censoring-operator": ">", "TGI [µM]": 100}

* * *

Test system: UACC-257 melanoma
test: NCI tumour cell line growth inhibition, 48 h

{"molecule": "Clc1ccccc1-c1nn2c(CCCCCCCCc3nnc4sc(-c5ccccc5Cl)nn34)nnc2s1", "TGI": "> 100 µM"}
{"molecule": "CN1NC2=NCCN=C3NN(C)C(=NCCN=C1S2)S3", "TGI": "> 100 µM"}
{"molecule": "O=S(=O)(O)c1ccc(N=Nc2c(O)ccc3ccccc23)cc1", "TGI": "> 100 µM"}
{"molecule": "CC1=NN(c2cccc(Cl)c2)C(=N/c2nc3ccccc3s2)/C1=C\\c1ccccc1O", "TGI": "62.2 µM"}
{"molecule": "CCOC(=O)N(C)CCC1CC=CC(=O)C1c1cccc(OC)c1OC (stereo unspecified)", "TGI": "39.3 µM"}
{"molecule": "Cc1cc(S(=O)(=O)Nc2nnc(-c3ccco3)c(-c3ccco3)n2)c(SCc2ccccc2)cc1Cl", "TGI": "67.6 µM"}
{"molecule": "Clc1ccc(N2COOC3(OOC2)C2CC4CC(C2)CC3C4)cc1", "TGI": "> 100 µM"}
{"molecule": "CCOC(=O)NC(Nc1cccc(F)c1)(C(F)(F)F)C(F)(F)F", "TGI": "> 100 µM"}
{"molecule": "Cc1ccc(C)c(NC(=O)CC2C(=O)Nc3ccccc3S2(=O)=O)c1 (stereo unspecified)", "TGI": "> 100 µM"}
{"molecule": "CCOC(=O)C12C3CCC1C2C(=O)C3 (stereo unspecified)", "TGI": "> 100 µM"}
{"molecule": "CC1(C)C2CC1C(/C=N\\OCC(=O)O)=CC2=O (stereo unspecified)", "TGI": "> 100 µM"}
{"molecule": "C=C1C(=O)O[C@H]2[C@H]1CC/C(COC(=O)/C=C/c1cccnc1)=C\\CC[C@@]1(C)O[C@@H]21", "TGI": "3.54 µM"}
{"molecule": "CCCCCCCCCCCCOCCCCCCCCC/C=C/c1ccc2c(c1)OCCOCCOCCOCCO2", "TGI": "73.2 µM"}
{"molecule": "COc1cccc(/C=C\\c2cc(OC)c(OC)c(OC)c2)c1", "TGI": "47.3 µM"}
{"molecule": "CCOC(=O)c1sc2ncn(Cc3cccc(Cl)c3)c(=O)c2c1C", "TGI": "29.3 µM"}
{"molecule": "COc1cc(/C=C2\\N=C(c3ccccc3)N(c3ccc(S(=O)(=O)Nc4nccs4)cc3)C2=O)ccc1O", "TGI": "> 100 µM"}
{"molecule": "NS(=O)(=O)c1ccc(NC(=S)/N=C/c2c(O)c3ccccc3[nH]c2=O)cc1", "TGI": "> 100 µM"}
{"molecule": "NC(=O)c1csc(C2O[C@@H](COP(=O)(O)OP(=O)(O)OC[C@H]3OC(n4cnc5c(N)ncnc54)[C@H](O)[C@@H]3O)[C@H](O)[C@@H]2O)n1 (stereo partly specified)", "TGI": "> 100 µM"}
{"molecule": "CC(=O)N1c2ccccc2C2=NN=C(N(C)C)SC21 (stereo unspecified)", "TGI": "12.7 µM"}
{"molecule": "COC(=O)/C=C/COCC1C2CCC(=O)C21 (stereo unspecified)", "TGI": "> 100 µM"}
{"molecule": "COC(=O)C1=C(C(=O)OC)C2(c3ccccc3)c3ccccc3C(=O)C1N2C1CCCCC1 (stereo unspecified)", "TGI": "> 100 µM"}
